- assay.comment: M. tuberculosis growth inhibition, HTS (AID 449762);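 also: bacterial growth assessed after seven days of incubation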
- condition: M. tuberculosis H37Rv growth inhibition, 7H9 media; at 25 µM; stronger effect = higher value
In all, about 330,000 compounds went through this assay and about 1,900 (0.58%) were called active. Roughly 4% stayed inconclusive and do not appear here. A selection follows. Entries with a potency or affinity are not part of this list.
Some molecules, each annotated with its measured inhibition.
Kindly answer with a numeric value in %, unit omitted.

Answered examples (6):
molecule | recorded.metric | output.unit | meas.value
Fc1ccc(Nc2cccc3nccnc23)cc1 | inhibition | % | 7.88
O=[N+]([O-])c1ccc(Nc2ccc(Cl)cc2)nc1 | inhibition | % | 25.4
CCN(Cc1ccccc1)c1ccc(/C=N/NC(=S)NC(C)C)cc1 | inhibition | % | 10.7
COCCN(C(=O)c1cccc(N2C(=O)CCC2=O)c1)c1nc(-c2ccc([N+](=O)[O-])cc2)cs1 | inhibition | % | 31.4
Cc1nn(Cc2ccccc2Cl)c(C)c1C(=O)NCC(c1cccs1)N1CCOCC1 (configuration not stated) | inhibition | % | 0.07
O=C(NCCCN1CCOCC1)c1cc(S(=O)(=O)N2CCOCC2)ccc1Cl | inhibition | % | -0.79

Prompt: Give the reported value of inhibition for this record: COc1cc(OC)c(C(=O)/C=C/c2ccc(OCc3ccccc3)c(OC)c2)c(OC)c1
Response: 55.4

Prompt: Please report the measured inhibition for O=C(O)c1cc(-c2ccncc2)nc2ccc(S(=O)(=O)N3CCOCC3)cc12
Response: 3.61

Prompt: Specify inhibition for CCC(C)Nc1nc(Cl)nc(NCCOc2ccccc2)n1 (configuration not stated) and stop.
Response: 5.37

Prompt: Report inhibition for O=C(CN(Cc1ccco1)C(=O)CNS(=O)(=O)c1ccccc1)NCc1ccccc1
Response: 0.41

Prompt: Please supply the value of reported inhibition for the item CC(C)N1CCc2c(sc(NC(=O)CCc3ccccc3)c2C(N)=O)C1
Response: 2.58

Prompt: Please look at this molecule and report its inhibition: Cc1cc(=O)oc2cc(OCC(=O)N3CCN(C(=O)C4COc5ccccc5O4)CC3)ccc12 (configuration not stated)
Response: 5.34

Prompt: Supply inhibition value. Item: Cn1cnnc1SCC(=O)Nc1nc(-c2ccc(F)cc2)cs1
Response: -5.61

Prompt: In one line, give reported inhibition of the entry COc1ccc(NC(=O)CCNC(=O)c2ccccc2)cc1S(N)(=O)=O .
Response: -4.86

Prompt: Specify reported inhibition for the molecule shown: O=C(Nc1ccc(N2CCCC2)c(Cl)c1)c1cccs1
Response: 7.74

Prompt: Quote inhibition reported for Cc1ccc(-c2noc(C3CCCN(C(=O)c4ccccc4)C3)n2)o1 (configuration not stated) please.
Response: 2.39

Prompt: Using the record for COc1cc(CN2CCC(n3nccc3NC(=O)c3ccccc3OC)CC2)ccc1F , state its measured inhibition.
Response: 7.24

Prompt: Read the entry NC(N)=N/N=C/c1ccc(Br)cc1 and write its reported inhibition.
Response: 10.5

---

inhibition values for the compounds below.
- assay.comment: M. tuberculosis growth inhibition, HTS (AID 449762);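 also: bacterial growth assessed after seven days of incubation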
- condition: M. tuberculosis H37Rv growth inhibition, 7H9 media; at 25 µM; stronger effect = higher value
Screen size: about 330,000 compounds; about 1,900 (0.58%) were called active. Inconclusive results (about 4%) are left out. Only a sample is shown. Potency and affinity values are given separately.
Field format: number, assumed %, no unit text.

Below, each entry is followed by its recorded inhibition result.
compound | meas.value
Cc1cccc(Nc2nc(-c3ccc(O)cc3O)cs2)n1 | 6.03
Cc1cc(C)nc(OC(C(=O)O)C(OCC(C)C)(c2ccccc2)c2ccccc2)n1 (configuration not stated) | -3.41
Cc1cc(C(=O)O)cc(S(=O)(=O)Nc2c(C)nn(C)c2C)c1C | -1.21
CC1=C(/C=C/C(C)=C/C=C/C(C)=C/C(=O)O)C(C)(C)CCC1 | 26.5
Cc1cc(C)cc(NC(=O)CCn2c(=S)[nH]c3ccccc3c2=O)c1 | 3.81

Switching to the query record.
Prompt: Input COc1ccccc1NC(=O)CSc1nnnn1C , output reported inhibition.
Response: -4.82
